Reference for the values: the supplement of paper PMC5908809

Tested on: KHYG-1 (IL-2 2.5 ng/mL)
TEST SUMMARY: relative IC50 (inflection point of fitted viability curve, relative to fitted max inhibition); higher = less sensitive
CONDITION DETAILS: 72 h
OUTCOME MEASURE: relative IC50
# output: number + unit

Use these answered entries as a reference point.
Problem: Bench note: what relative IC50 did Cc1ccc2nc(CN(CCN(Cc3nc4ccc(C)cc4[nH]3)Cc3nc4ccc(C)cc4[nH]3)Cc3nc4ccc(C)cc4[nH]3)[nH]c2c1 show?
Solution: 6250 nM

Problem: Bench note: what relative IC50 did CN(c1ccccc1CNc1nc(Nc2ccc3c(c2)CC(=O)N3)ncc1C(F)(F)F)S(C)(=O)=O show?
Solution: 553 nM

Problem: Bench note: what relative IC50 did COc1ccc(C[C@H](NC(=O)[C@H](C)NC(=O)CN2CCOCC2)C(=O)N[C@@H](Cc2ccccc2)C(=O)C2(C)CO2)cc1 (stereo in doubt) show?
Solution: 142 nM

Problem: Bench note: what relative IC50 did Nc1ncnc2c1nc(N)n2[C@@H]1O[C@H](CO)[C@@H](O)[C@H]1O show?
Solution: 836 nM

Problem: Bench note: what relative IC50 did COC(=O)c1ccc2c(c1)NC(=O)/C2=C(\Nc1ccc(N(C)C(=O)CN2CCN(C)CC2)cc1)c1ccccc1 show?
Solution: 1720 nM

---
Problem: Bench note: what relative IC50 did CN(c1ncccc1CNc1nc(Nc2ccc3c(c2)CC(=O)N3)ncc1C(F)(F)F)S(C)(=O)=O show?
Solution: 1090 nM

Problem: Bench note: what relative IC50 did COc1cccc2c1C(=O)c1c(O)c3c(c(O)c1C2=O)C[C@@](O)(C(C)=O)C[C@@H]3O[C@H]1C[C@H](N)[C@H](O)[C@H](C)O1 show?
Solution: 38.2 nM

----------
# drug sensitivity score per record follows
Test system: normal primary NK cells, pool 3 (3 donors) (IL-2 2.5 ng/mL)
TEST SUMMARY: drug sensitivity score (DSS) (DSS units); higher = more sensitive; extreme values may be limits of the assay
CONDITION DETAILS: 72 h
Note: the reply should be a number with no unit written.

Use these answered entries as a reference point.
Problem: Bench note: what drug sensitivity score did Nc1ncnc2c1nc(Cl)n2[C@@H]1O[C@H](CO)[C@@H](O)[C@H]1O [8-chloro-adenosine] (max concentration tested 50000 nM) show?
Solution: 5.7

Problem: Bench note: what drug sensitivity score did C[C@H]1C[C@@H]2[C@H]([C@@H](O)C[C@@]3(C)[C@H]2CC[C@]3(O)C(=O)CO)[C@@]2(C)C=CC(=O)C=C12 [Methylprednisolone] (max concentration tested 10000 nM) show?
Solution: 13.5

---
Problem: Bench note: what drug sensitivity score did CN(C)c1cc2c(cc1Sc1nc3c(N)nccc3n1CCNCC(C)(C)C)OCO2 [CUDC-305] (max concentration tested 10000 nM) show?
Solution: 15.8

----------
# relative IC50 per record follows
Tested on: NK-YS (IL-2 2.5 ng/mL)
TEST SUMMARY: relative IC50 (inflection point of fitted viability curve, relative to fitted max inhibition); higher = less sensitive
CONDITION DETAILS: 72 h

Use these answered entries as a reference point.
Problem: Bench note: what relative IC50 did O=C(Nc1ccncc1)C(=O)c1cn(Cc2ccc(Cl)cc2)c2ccccc12 show?
Solution: 77.7 nM

Problem: Bench note: what relative IC50 did COc1cc(Nc2ncc(F)c(Nc3ccc4c(n3)NC(=O)C(C)(C)O4)n2)cc(OC)c1OC show?
Solution: 1650 nM

Problem: Bench note: what relative IC50 did O=c1cc(N2CCOCC2)oc2c(-c3ccccc3)cccc12 show?
Solution: 9060 nM

Problem: Bench note: what relative IC50 did CCc1c2c(nc3ccc(OC(=O)N4CCC(N5CCCCC5)CC4)cc13)-c1cc3c(c(=O)n1C2)COC(=O)[C@]3(O)CC show?
Solution: 282 nM

Problem: Bench note: what relative IC50 did COC(=O)C[C@](O)(CCCC(C)(C)O)C(=O)O[C@@H]1C(OC)=C[C@]23CCCN2CCc2cc4c(cc2[C@H]13)OCO4 show?
Solution: 30.7 nM

---
Problem: Bench note: what relative IC50 did COc1cc(Nc2ncc3c(n2)-c2ccc(Cl)cc2C(c2c(F)cccc2OC)=NC3)ccc1C(=O)O show?
Solution: 22 nM

Problem: Bench note: what relative IC50 did CC1(C)CCC(CN2CCN(c3ccc(C(=O)NS(=O)(=O)c4ccc(NCC5CCOCC5)c([N+](=O)[O-])c4)c(Oc4cnc5[nH]ccc5c4)c3)CC2)=C(c2ccc(Cl)cc2)C1 show?
Solution: 1450 nM

----------
Test system: normal primary NK cells, pool 1 (3 donors) (IL-2 2.5 ng/mL)
TEST SUMMARY: percent inhibition of viability; higher = more inhibition
CONDITION DETAILS: 72 h; 0.1 nM
OUTCOME MEASURE: percent inhibition of viability (%)
All answers are understood in %, so give the number only.

Problem: Bench note: what percent inhibition of viability did CS(=O)(=O)CCNCc1ccc(-c2ccc3ncnc(Nc4ccc(OCc5cccc(F)c5)c(Cl)c4)c3c2)o1 [Lapatinib] (max concentration tested 1000 nM) show?
Solution: -9.91

Problem: Bench note: what percent inhibition of viability did O=C(/C=C/c1cccnc1)NCCCCC1CCN(C(=O)c2ccccc2)CC1 [Daporinad] (max concentration tested 1000 nM) show?
Solution: 3.25

---
Problem: Bench note: what percent inhibition of viability did CO[C@H]1C[C@@H]2CC[C@@H](C)[C@@](O)(O2)C(=O)C(=O)N2CCCC[C@H]2C(=O)O[C@H]([C@H](C)C[C@@H]2CC[C@@H](OC(=O)C(C)(CO)CO)[C@H](OC)C2)CC(=O)[C@H](C)/C=C(\C)[C@@H](O)[C@@H](OC)C(=O)[C@H](C)C[C@H](C)/C=C/C=C/C=C/1C [Temsirolimus] (max concentration tested 100 nM) show?
Solution: 4.99

Problem: Bench note: what percent inhibition of viability did CC[C@]1(O)C[C@@H]2CN(CCc3c([nH]c4ccccc34)[C@@](C(=O)OC)(c3cc4c(cc3OC)N(C)[C@H]3[C@@](O)(C(=O)OC)[C@H](OC(C)=O)[C@]5(CC)C=CCN6CC[C@]43[C@@H]65)C2)C1 [Vinblastine] (max concentration tested 1000 nM) show?
Solution: -10.7

----------
Tested on: normal primary NK cells, pool 1 (3 donors), resting (IL-2 0 ng/mL)
TEST SUMMARY: drug sensitivity score (DSS) (DSS units); higher = more sensitive; extreme values may be limits of the assay
CONDITION DETAILS: 72 h
# drug sensitivity score per record follows

Use these answered entries as a reference point.
Problem: Bench note: what drug sensitivity score did O=C(c1ccc(F)c(F)c1Nc1ccc(I)cc1F)N1CC(O)([C@@H]2CCCCN2)C1 [Cobimetinib] (max concentration tested 1000 nM) show?
Solution: 2.92

Problem: Bench note: what drug sensitivity score did C[C@H]1C[C@@H]2[C@H]([C@@H](O)C[C@@]3(C)[C@H]2CC[C@]3(O)C(=O)CO)[C@@]2(C)C=CC(=O)C=C12 [Methylprednisolone] (max concentration tested 10000 nM) show?
Solution: 31.7

Problem: Bench note: what drug sensitivity score did COc1cc2ncnc(Nc3ccc(F)c(Cl)c3)c2cc1OCCCN1CCOCC1 [Gefitinib] (max concentration tested 10000 nM) show?
Solution: 3

Problem: Bench note: what drug sensitivity score did Cc1[nH]c(/C=C2\C(=O)Nc3ccccc32)c(C)c1CCC(=O)O [Orantinib] (max concentration tested 10000 nM) show?
Solution: 3.33

Problem: Bench note: what drug sensitivity score did Cn1cc(C2=Nc3cc(NC(=O)C(N)C4CCCCC4)cc4c3C2=CNNC4=O)cn1 (stereo not drawn) (max concentration tested 10000 nM) show?
Solution: 0

---
Problem: Bench note: what drug sensitivity score did COc1cc(F)c(F)c(Nc2ccc(I)cc2F)c1NS(=O)(=O)C1(C[C@H](O)CO)CC1 [Refametinib] (max concentration tested 10000 nM) show?
Solution: 4.14

Problem: Bench note: what drug sensitivity score did O=S(=O)(c1cccc2c(O)nccc12)N1CCCNCC1 [Hydroxyfasudil] (max concentration tested 37500 nM) show?
Solution: 0.05

Problem: Bench note: what drug sensitivity score did CC(C)C[C@@H](C(=O)N[C@H](C(=O)OC1CCCC1)c1ccccc1)[C@H](O)C(=O)NO [Tosedostat] (max concentration tested 10000 nM) show?
Solution: 15.1

----------
Tested on: NK-YS (IL-2 2.5 ng/mL)
TEST SUMMARY: drug sensitivity score (DSS) (DSS units); higher = more sensitive; extreme values may be limits of the assay
CONDITION DETAILS: 72 h
Cut-off 10 on drug sensitivity score, inclusive. At or above means Yes; below means No.

Solved cases (4 shown):
Problem: Can COC(=O)C[C@](O)(CCCC(C)(C)O)C(=O)O[C@@H]1C(OC)=C[C@]23CCCN2CCc2cc4c(cc2[C@H]13)OCO4 [Omacetaxine] (max concentration tested 10000 nM) be said to have drug sensitivity score at or above 10?
Solution: Yes

Problem: Can Oc1ncc(N(CCCl)CCCl)c(O)n1 [Uracil mustard] (max concentration tested 10000 nM) be said to have drug sensitivity score at or above 10?
Solution: No

Problem: Can O=S(=O)(c1cccc2c(O)nccc12)N1CCCNCC1 [Hydroxyfasudil] (max concentration tested 37500 nM) be said to have drug sensitivity score at or above 10?
Solution: No

Problem: Can C=CC[C@@H]1/C=C(\C)C[C@H](C)C[C@H](OC)[C@H]2O[C@@](O)(C(=O)C(=O)N3CCCC[C@H]3C(=O)O[C@H](/C(C)=C/[C@@H]3CC[C@@H](O)[C@H](OC)C3)[C@H](C)[C@@H](O)CC1=O)[C@H](C)C[C@@H]2OC [Tacrolimus] (max concentration tested 10000 nM) be said to have drug sensitivity score at or above 10?
Solution: No

Moving on to the next compound.
Problem: Can COc1ncc(-c2ccc3nccc(-c4ccnnc4)c3c2)cc1NS(=O)(=O)c1ccc(F)cc1F [Omipalisib] (max concentration tested 1000 nM) be said to have drug sensitivity score at or above 10?
Solution: Yes
